- System: HS 578T breast
- assay_name: NCI-60 one-dose screen, 48 h
- condition_notes: 10 µM unless noted
This is part of a sample that, as a whole, favours compounds with a hit. Of some 83,000 tested, about 20% had one in any assay. Calls of active or inactive are those of the source. Rule for the calls: active = growth percent below 10; inactive = the rest.
Labels: active, inactive

                                    compound  classification
 0  COC(=O)c1ccc(NC2=C(Cl)C(=O)C(C)=C(C)C2=O)cc1        inactive
 1  O=C(CCCCCCNC(=O)C(O)(O)C(F)(F)F)Nc1nc2ccccc2s1        inactive
 2  CCCC/C(=C\c1ccc(O)c(O)c1)C(=O)NC(Cc1ccccc1)C(=O)C(=O)NCCc1ccc(OC)cc1 (centres undefined)        inactive
 3  Nn1c(=O)n(-c2cccc(C(F)(F)F)c2)c(=O)c2cc(-c3ccc(F)cc3F)ccc21          active
 4  O=C(CSc1nc2ccccc2c(=O)n1-c1ccccc1)N/N=C/c1ccc(Oc2ccc(Br)cc2)cc1        inactive
 5                  C#Cc1nc(/C=C/C(=O)NO)cs1        inactive
 6  O=C(CCCCCCN1CC(=O)N2[C@@H](c3ccccc3Br)c3[nH]c4ccccc4c3C[C@H]2C1=O)NO        inactive
 7  O=C(/C=C/c1cccc(F)c1)c1cccc(OCCCOc2cccc(C(=O)/C=C/c3cccc(F)c3)c2)c1        inactive
 8  C#C[C@]1(O)CC[C@H]2[C@@H]3CC=C4c5sc(N(C)c6ccccc6)nc5CC[C@]4(C)[C@H]3CC[C@@]21C        inactive
 9          C/C(=N/N)c1nnn(-c2ccc(Br)cc2)c1C        inactive
10  COc1ccc(/C=N/NC(=O)c2c(N)nn(C)c2Nc2ccccc2)cc1Oc1ccccc1        inactive
11  CC1=C(SCC(=O)OCCCCCC(C)C)C(=O)c2ccccc2C1=O        inactive
12  N#Cc1c(-c2cccs2)cc(-c2cnccn2)nc1SCC(=O)N/N=C/c1ccccc1        inactive
13  CC(Nc1c(C#N)cnc2ccc(-c3cncc(-c4n[nH]c(=O)o4)c3)cc12)c1ccccc1 (centres undefined)          active
14  O=C(CSc1nc2ccccc2c(=O)n1-c1ccccc1)N/N=C/c1ccc(Oc2ccc(Cl)cc2)cc1        inactive
15  NCCNC(=O)c1cccc(COc2ccccc2NC(=O)c2cc(Cl)c(Cl)[nH]2)c1        inactive
16  COc1ccc(-c2c3c(cn2Cc2cccc(OC)c2)-c2oncc2CCC3)cc1        inactive
17  CC1(C)CC[C@]2(C(=O)O)CC[C@]3(C)C(=CC[C@@H]4[C@@]5(C)CC[C@H](NOCCCN)C(C)(C)[C@@H]5CC[C@]43C)[C@@H]2C1        inactive
18     Cc1csc(/N=C(N)/N=C(\N)c2cccc(Br)c2)n1        inactive

###

- System: MDA-MB-231 breast
- assay_name: NCI-60 one-dose screen, 48 h (100 = growth as untreated, 0 = no growth, -100 = all killed)
- condition_notes: 10 µM unless noted
This is part of a sample that, as a whole, favours compounds with a hit. Of some 83,000 tested, about 20% had one in any assay.
Classification field: enter criterion met for growth values not below 70%, criterion not met for values below it.

                              line_notation     classification
0  COc1ccc(CC(C)=C(c2ccc(OCCN3CCCC3)cc2)c2ccc(OCCN3CCCC3)cc2)cc1  criterion not met
1  Cc1ccc2c(n1)C(=O)C(Cl)=C(Nc1ccc(C#N)cc1)C2=O      criterion met
2  COc1ccc(-c2c3c(cn2Cc2cccc(OC)c2)-c2oncc2CCC3)cc1      criterion met
3  NS(=O)(=O)c1ccc(Nc2nc(N/N=C/c3ccc4c(c3)OCO4)nc(Nc3ccccc3)n2)cc1  criterion not met

###

- Tested on: SNB-75 CNS
- assay_name: NCI-60 one-dose screen, 48 h (100 = growth as untreated, 0 = no growth, -100 = all killed)
- condition_notes: 10 µM unless noted
Compounds without any hit were thinned out: in the full panel of roughly 83,000, 20% have a hit. Calls of active or inactive are those of the source. The calls were made as follows: active = growth percent below 10; inactive = the rest.
experimental_endpoint: growth

                                   compound  measurement_target            result
0  Cc1ccc2c(n1)C(=O)C(Cl)=C(Nc1cccc(C)c1C)C2=O          SNB-75 CNS  61.2% (inactive)
1  CC(Nc1c(C#N)cnc2ccc(-c3cncc(O)c3)cc12)c1ccccc1 (stereo not given)          SNB-75 CNS  10.5% (inactive)
2  COC(=O)[C@@H](Cc1c[nH]c2ccccc12)NC(=O)CCCCOc1cc(O)c2c(=O)cc(-c3ccccc3)oc2c1          SNB-75 CNS  72.3% (inactive)
3  CN1CCN(c2ccc(Nc3nc(NCCNS(=O)(=O)c4ccccc4)c4sccc4n3)cc2)CC1          SNB-75 CNS  81.5% (inactive)
4  CCc1cc2c(cc1Cl)nc1c(=O)[nH]c(=O)nc-1n2CCOCC(C)(C)C          SNB-75 CNS    97% (inactive)

###

- Tested on: MDA-MB-435 melanoma
- assay_name: NCI-60 one-dose screen, 48 h
- condition_notes: 10 µM unless noted
About 83,000 compounds went through this panel and 20% of them were active in at least one assay; those are over-represented in the sample as a whole. The source made the active and inactive calls. How the source made its calls: active means growth percent below 10; inactive means the rest.
Labels: 1 = active, -1 = inactive

line_notation	classification
O=C(CCCCCCNC(=O)C(O)(O)C(F)(F)F)Nc1ccc(-c2ccccc2)cc1	1
O=C(Nc1ccc(N=Cc2c(O)[nH]c3ccccc23)cc1)Nc1ccc(S(=O)(=O)Nc2ncccn2)cc1	-1
CCCNNC(=O)c1ccc(-c2ccc(NC(=O)CCCCCCC(=O)N[C@H](C(=O)N3C[C@H](O)C[C@H]3C(=O)N[C@@H](C)c3ccc(-c4scnc4C)cc3)C(C)(C)C)cc2)cc1	1
N#Cc1cnc2ccc(-c3cnc4n[nH]nc4c3)cc2c1N1CCc2cc(F)c(Cl)cc21	-1

###

Catalogue of molecules with associated growth
- System: U251 CNS
- assay_name: NCI-60 one-dose screen, 48 h (100 = growth as untreated, 0 = no growth, -100 = all killed)
- condition_notes: 10 µM unless noted
Compounds without any hit were thinned out: in the full panel of roughly 83,000, 20% have a hit.
experimental_endpoint: growth (%)

In [3]: df
Out[3]:
                              line_notation  experimental_endpoint  number
0  COC(=O)c1cccc(NC2=C(Cl)C(=O)c3nc(C)ccc3C2=O)c1                 growth     106
1  C#C[C@]1(O)CC[C@H]2[C@@H]3CC=C4c5sc(Nc6cc(Cl)ccc6OC)nc5CC[C@]4(C)[C@H]3CC[C@@]21C                 growth    15.3
2  Cc1cc2nc(C(Cl)Cl)nc(-c3ccc(S(=O)(=O)N(C)C)cc3)n2n1                 growth    39.2
3  Cc1ccc(C(=O)Nc2ccc(CNCCN3CCOCC3)c(C(F)(F)F)c2)cc1C#Cc1cnc2cccnn12                 growth    6.06
4  C#CCOc1ccc(/C=N/Nc2nc(-c3ccc(OC)cc3)cs2)cc1                 growth    96.4
5  CCOC(=O)c1c(NC(=O)c2ccc(C(F)(F)F)cc2)sc2c(CN3CCN(C)CC3)c(O)ccc12                 growth     -88
6  Brc1ccc2[nH]cc(-c3nn4cc(-c5nccs5)nc4s3)c2c1                 growth    61.3
7           C#Cc1nc(C(=O)NCCCCCCC(=O)NO)cs1                 growth    6.04
8  Cc1cccc(N2CCN(C3=C(Cl)C(=O)c4ncccc4C3=O)CC2)c1                 growth    85.2
9  CN1CCN(c2ccc(Nc3nc(NCCCNS(=O)(=O)c4ccccc4)c4sccc4n3)cc2)CC1                 growth    13.2

###

- System: NCI/ADR-RES ovarian
- assay_name: NCI-60 one-dose screen, 48 h (100 = growth as untreated, 0 = no growth, -100 = all killed)
- condition_notes: 10 µM unless noted
The panel holds about 83,000 compounds, 20% with a hit somewhere; the sample as a whole holds those more often.
experimental_endpoint: growth (%)

                              line_notation   measurement_target  unit_annotation  number
0  O=C1[C@@H]2Cc3c([nH]c4ccccc34)[C@H](c3ccc(Br)cc3)N2C(=O)CN1C1CCN(Cc2c(Cl)cccc2Cl)CC1  NCI/ADR-RES ovarian                %    90.9
1  NCCNC(=O)c1cccc(COc2ccccc2NC(=O)c2cc(Cl)c(Cl)[nH]2)c1  NCI/ADR-RES ovarian                %     101
2             CC(=O)Nc1ccccc1-c1nc2ccccc2s1  NCI/ADR-RES ovarian                %    98.5
3  CC(C)(C)c1cc(NC(=O)Nc2ccc(-c3cn4c5c(sc4n3)CCc3c[nH]cc3-5)cc2)no1  NCI/ADR-RES ovarian                %      29
4    CC(=O)Nc1nc(C)c(-c2csc(Nc3ccccc3)n2)s1  NCI/ADR-RES ovarian                %    35.9
